target: human progesterone receptor-A [PRA] isoform (Homo sapiens); construct: host or cells: insect SF21 cells (baculovirus); test: Radioligand binding with human progesterone receptor cytosol ([3H]-progesterone competition); details: PRA cytosol expressed in insect SF21 cells, [3H]Prog ~0.8 nM, 4° C. overnight; Ki by Cheng-Prusoff, KL ~4.5 nM; read-out: Ki (nM) PR
Sequence (P06401 165-933): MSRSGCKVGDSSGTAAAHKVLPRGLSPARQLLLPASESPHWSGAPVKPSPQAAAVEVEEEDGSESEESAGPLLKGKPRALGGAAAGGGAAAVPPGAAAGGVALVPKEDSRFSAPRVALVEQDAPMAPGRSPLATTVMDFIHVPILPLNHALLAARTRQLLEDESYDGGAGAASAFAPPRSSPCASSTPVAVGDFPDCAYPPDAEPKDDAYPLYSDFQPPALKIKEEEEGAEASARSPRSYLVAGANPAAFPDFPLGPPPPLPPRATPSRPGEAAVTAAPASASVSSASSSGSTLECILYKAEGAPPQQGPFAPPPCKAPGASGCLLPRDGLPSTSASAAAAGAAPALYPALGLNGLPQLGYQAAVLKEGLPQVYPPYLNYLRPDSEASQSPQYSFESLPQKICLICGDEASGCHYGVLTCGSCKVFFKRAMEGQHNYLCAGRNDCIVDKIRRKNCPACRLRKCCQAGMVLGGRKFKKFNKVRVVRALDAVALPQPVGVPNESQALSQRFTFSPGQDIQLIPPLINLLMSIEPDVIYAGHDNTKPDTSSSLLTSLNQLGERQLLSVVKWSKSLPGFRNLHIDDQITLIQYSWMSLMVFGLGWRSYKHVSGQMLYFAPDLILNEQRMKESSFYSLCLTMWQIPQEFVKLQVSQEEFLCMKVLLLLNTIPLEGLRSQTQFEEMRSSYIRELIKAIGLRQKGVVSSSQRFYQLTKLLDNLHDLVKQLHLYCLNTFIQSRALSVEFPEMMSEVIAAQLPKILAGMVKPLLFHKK
Measured Ki by item
Respond numerically; units are nM and should not be typed.

Before answering, review these 9 worked examples.
In [3]: df
Out[3]:
                                   compound                        measurement_target  reported_value
0  COc1c(O)ccc2c1-c1ccc3c(c1C(c1cccs1)O2)C(C)=CC(C)(C)N3 (stereo not shown) [Example 274]  human progesterone receptor-A [PRA] isoform (Homo sapiens)             386
1  COc1c(O)ccc2c1-c1ccc3c(c1C(C1CCCC1)O2)C(C)=CC(C)(C)N3 (stereo not shown) [Example 384]  human progesterone receptor-A [PRA] isoform (Homo sapiens)             197
2  C=CCC1Oc2cccc(NC)c2-c2ccc3c(c21)C(C)=CC(C)(C)N3 (stereo not shown) [Example 3]  human progesterone receptor-A [PRA] isoform (Homo sapiens)            2650
3  CC1=CC(C)(C)Nc2ccc3c(c21)C(c1ccccc1)Oc1cccc(O)c1-3 (stereo not shown) [Example 7]  human progesterone receptor-A [PRA] isoform (Homo sapiens)            5680
4  CCC(C)=C1Oc2cccc(OC)c2-c2ccc3c(c21)C(C)=CC(C)(C)N3 [Example 355]  human progesterone receptor-A [PRA] isoform (Homo sapiens)            4280
5  COc1cccc2c1-c1ccc3c(c1C(CC(C)C)O2)C(C)=CC(C)(C)N3 (stereo not shown) [Example 59]  human progesterone receptor-A [PRA] isoform (Homo sapiens)           16600
6  COc1ccc2c(c1OC)-c1ccc3c(c1C(C1C=CCCC1)O2)C(C)=CC(C)(C)N3 (stereo not shown) [Example 131]  human progesterone receptor-A [PRA] isoform (Homo sapiens)             996
7  CC1=CC(C)(C)Nc2ccc3c(c21)C(c1ccccc1)Oc1cccc(OC(F)F)c1-3 (stereo not shown) [Example 345]  human progesterone receptor-A [PRA] isoform (Homo sapiens)            3000
8  COc1c(O)ccc2c1-c1ccc3c(c1C(Cc1ccccc1)O2)C(C)=CC(C)(C)N3 (stereo not shown) [Example 262]  human progesterone receptor-A [PRA] isoform (Homo sapiens)             150

Name the reported Ki value associated with the compound C=CCC1Oc2ccc(OC(=O)CCCC(=O)N(C)C)c(OC)c2-c2ccc3c(c21)C(C)=CC(C)(C)N3 (stereo not shown) [Example 438]
129
